- targetOrTestSystem: Mu-type opioid receptor (Rattus norvegicus, UniProt P33535)
- Sequence (P33535 whole entry): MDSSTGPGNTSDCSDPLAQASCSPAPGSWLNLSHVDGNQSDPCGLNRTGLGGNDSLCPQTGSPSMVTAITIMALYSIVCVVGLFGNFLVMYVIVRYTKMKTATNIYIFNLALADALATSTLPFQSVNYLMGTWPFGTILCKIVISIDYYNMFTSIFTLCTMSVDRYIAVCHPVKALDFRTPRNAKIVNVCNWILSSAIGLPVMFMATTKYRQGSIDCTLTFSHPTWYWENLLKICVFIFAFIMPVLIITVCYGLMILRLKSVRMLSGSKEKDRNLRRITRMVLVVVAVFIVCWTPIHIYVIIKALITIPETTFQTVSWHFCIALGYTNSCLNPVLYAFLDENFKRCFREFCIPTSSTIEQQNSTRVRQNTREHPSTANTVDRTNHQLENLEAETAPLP
measuredParameter: pIC50
Please note pIC50 is a logarithmic value: minus log10 of concentration in mol/L. Answer with that number alone.

Recorded results for 4 molecules are shown here.
chemicalString | measuredParameter | valueMeasured
CC1(C)SSC(C)(C)[C@@H](NC(=O)[C@@H](N)Cc2ccc(O)cc2)C(=O)NCC(=O)N[C@@H](Cc2ccc(I)cc2)C(=O)N[C@@H]1C(=O)N[C@@H](Cc1ccccc1)C(=O)O | pIC50 | 5.14
CC1(C)SSC(C)(C)[C@@H](NC(=O)[C@@H](N)Cc2ccc(O)cc2)C(=O)NCC(=O)N[C@@H](Cc2ccc(F)cc2)C(=O)N[C@@H]1C(=O)N[C@@H](Cc1ccccc1)C(=O)O | pIC50 | 5.78
CC1(C)SSC(C)(C)[C@@H](NC(=O)[C@@H](N)Cc2ccc(O)cc2)C(=O)NCC(=O)N[C@@H](Cc2ccccc2)C(=O)N[C@@H]1C(=O)N[C@@H](Cc1ccccc1)C(=O)O | pIC50 | 4.94
CC1(C)SSC(C)(C)[C@@H](NC(=O)[C@@H](N)Cc2ccc(O)cc2)C(=O)NCC(=O)N[C@@H](Cc2ccc(Br)cc2)C(=O)N[C@@H]1C(=O)N[C@@H](Cc1ccccc1)C(=O)O | pIC50 | 5.38

Ask: Retrieve pIC50 on Mu-type opioid receptor (Rattus norvegicus, UniProt P33535); query CC1(C)SSC(C)(C)[C@@H](NC(=O)[C@@H](N)Cc2ccc(O)cc2)C(=O)NCC(=O)N[C@@H](Cc2ccc(Cl)cc2)C(=O)N[C@@H]1C(=O)N[C@@H](Cc1ccccc1)C(=O)O
Result: 5.77
